ASSAY PROCEDURE: self-splicing fitness, log relative to wild type (ln ratio); higher = more splicing; Tetrahymena group I intron in knt gene, E. coli kanamycin selection, DiMSum; sequences stand for … in CUCUCU…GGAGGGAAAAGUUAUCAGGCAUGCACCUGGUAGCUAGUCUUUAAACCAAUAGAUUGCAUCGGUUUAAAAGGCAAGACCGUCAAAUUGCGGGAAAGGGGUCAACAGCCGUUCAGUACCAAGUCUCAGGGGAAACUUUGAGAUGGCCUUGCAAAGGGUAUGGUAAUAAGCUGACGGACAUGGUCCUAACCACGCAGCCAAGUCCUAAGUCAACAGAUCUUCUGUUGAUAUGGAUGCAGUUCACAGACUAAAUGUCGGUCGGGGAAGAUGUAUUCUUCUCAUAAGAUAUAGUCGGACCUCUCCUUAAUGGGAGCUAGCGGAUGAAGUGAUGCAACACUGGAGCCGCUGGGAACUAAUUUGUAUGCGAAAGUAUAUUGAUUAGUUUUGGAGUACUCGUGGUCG;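 further: selection with 25 µg/mL kanamycin versus none on LB agar overnight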
EXPERIMENTAL CONTEXT: 30 °C
This section presents sequences with their documented self-splicing fitness (ln) values.
Number only, no unit.

CUAUAGCAAUAUUACGCUGG
-3.36
CUGCAGCAAUAUUACGAGCU
-2.93

INPUT: Using the record for GCGUAGCAAUAUUACGGCGA , state its measured self-splicing fitness (ln).
OUTPUT: -0.0106

INPUT: Using the record for GCUGAGCAAUAUUACGGCGG , state its measured self-splicing fitness (ln).
OUTPUT: -1.79

INPUT: Using the record for CUAAAGCAAUAUUACGAUUC , state its measured self-splicing fitness (ln).
OUTPUT: -3.33

INPUT: Using the record for CAAAAGCAAUAUUACGUGCA , state its measured self-splicing fitness (ln).
OUTPUT: -2.95
